- Study target: indicated HLA alleles
- Experiment: Affinity of mutant EGFR neopeptides for indicated HLA alleles
- Assay type: binding, human
- Assay conditions: EGFR T790M; HLA A01.01
Where no end group is shown, it is not given here.
Measurement type: pKd
Numbers only, as −log10 of the molar value.

Inquiry: Using known records, supply pKd for LTSTVQLIM
Reply text: 5.54

====

- Study target: indicated HLA alleles
- Experiment: Affinity of mutant BTK neopeptides for indicated HLA alleles
- Type: binding, human
- Assay conditions: BTK_C481S; HLA A02.01
Where no end group is shown, it is not given here.
Measurement type: pKd
Give bare numbers, as −log10 of the molar value.

Inquiry: Using known records, supply pKd for YMANGSLLN
Reply text: 5.40

====

- Study target: indicated HLA alleles (Homo sapiens, UniProt P04439)
- Experiment: Affinity of mutant BTK neopeptides for indicated HLA alleles
- Format: binding
Where no end group is shown, it is not given here.
Measurement type: pKd
Numbers only, as −log10 of the molar value.

Inquiry: Using known records, supply pKd for YMANGSLLNY
Reply text: 7.02

====

- Assay conditions: 5 mM SS (higher SS concentration) in D5W
Where no end group is shown, it is not given here.

- Seq text: "GPPARVPAVPFDLHFCRSSIMKPKRD [Peptide L8]"
  solubility in 5 mM SS: "soluble"
- Seq text: "LHFCRSSIMKPKRDGYMFLKAESKI [Peptide L9]"
  solubility in 5 mM SS: "soluble"
- Seq text: "KPKRDGYMFLKAESKI [Peptide L10c]"
  solubility in 5 mM SS: "soluble"

====

- Study target: indicated HLA alleles
- Experiment: Affinity of GATA3 neoORF neoepitopes for the indicated HLA alleles (Example 9, Table 4)
- Format: binding, human
- Assay conditions: Allele A24:02; read-out: Observed MHC affinity
Where no end group is shown, it is not given here.
Measurement type: Kd (nM)
Numbers only, in nM.

Inquiry: Using known records, supply Kd for MFLKAESKI
Reply text: 332

====

- Study target: indicated HLA alleles
- Experiment: Affinity of GATA3 neoORF neoepitopes for the indicated HLA alleles (Example 9, Table 4)
- Format: binding, human
- Assay conditions: Allele A02.01; read-out: Observed MHC affinity
- Procedure: Multiple peptides containing the neoepitopes in Table 4 below were expressed or loaded onto antigen presenting cells (APCs). Mass spectrometry was then performed and the affinity of the neoepitopes for the indicated HLA alleles and stability of the neoepitopes with the HLA alleles was determined.
Where no end group is shown, it is not given here.
Measurement type: Kd (nM)
One number for each entry, in nM.

// worked examples, Kd included
- Seq text: "TLQRSSLWCL"
  Measurement type: "Kd"
  Data value: 118
- Seq text: "VLPEPHLAL [VLPEPHLAL]"
  Measurement type: "Kd"
  Data value: 16
- Seq text: "ALQPLQPHA"
  Measurement type: "Kd"
  Data value: 604

// next item, Kd requested
Inquiry: Using known records, supply Kd for AIQPVLWTT
Reply text: 8

====

- Study target: indicated HLA alleles
- Experiment: Affinity of mutant BTK neopeptides for indicated HLA alleles
- Format: binding, human
- Assay conditions: BTK, C481S; HLA A11.01
Where no end group is shown, it is not given here.
Measurement type: pKd
Answers are plain numbers, as −log10 of the molar value.

Inquiry: Using known records, supply pKd for YMANGSLLNY
Reply text: 6.01
